Where do the numbers come from? From patent EP4725946A1.

Test Summary: Pharmacokinetic study in mice
Assay type: in vivo
Particulars: male mice, p.o. (10 mg/kg), plasma
Experimental Readout: T1/2
# do not omit the unit; it follows the number

Cn1c(=O)n(C2CCC(=O)NC2=O)c2cccc(C#CCO[C@H]3CC[C@H](CN4CCC5(CC4)Cc4cc(NC(=O)c6cnn7cc(F)cnc67)c(N6CCC(CO)CC6)cc4O5)CC3)c21 (some centres unmarked)	4.27 h

The measured T1/2 associated with Cn1c(=O)n(C2CCC(=O)NC2=O)c2cccc(C#CCO[C@H]3CC[C@H](CN4CCC5(CC4)Cc4cc(NC(=O)c6cnn7cccnc67)c(N6CCC(CO)CC6)cc4O5)CC3)c21 (relative stereo) reads 3.70 h

Documented T1/2 of Cn1c(=O)n(C2CCC(=O)NC2=O)c2cccc(C#CCO[C@H]3CC[C@H](CN4CCC5(CC4)Cc4cc(NC(=O)c6cnc7cccnn67)c(N6CCC(CO)CC6)cc4O5)CC3)c21 (some centres unmarked) : 4.40 h

Lab note: Cn1c(=O)n(C2CCC(=O)NC2=O)c2cccc(C#CCO[C@H]3CC[C@H](CN4CCC5(CC4)Cc4cc(NC(=O)c6cnn7cccnc67)c(N6CCC(O)CC6)cc4O5)CC3)c21 (some centres unmarked) gave T1/2 of 3.82 h

Reported T1/2 for Cn1c(=O)n(C2CCC(=O)NC2=O)c2cccc(C#CCO[C@H]3CC[C@H](CN4CCC5(CC4)Cc4cc(NC(=O)c6coc7cccnc67)c(N6CCC(CO)CC6)cc4O5)CC3)c21 (some centres unmarked) was 4.34 h
